Biological target: Type-2 angiotensin II receptor (Rattus norvegicus, UniProt P35351)
Sequence (P35351 whole entry): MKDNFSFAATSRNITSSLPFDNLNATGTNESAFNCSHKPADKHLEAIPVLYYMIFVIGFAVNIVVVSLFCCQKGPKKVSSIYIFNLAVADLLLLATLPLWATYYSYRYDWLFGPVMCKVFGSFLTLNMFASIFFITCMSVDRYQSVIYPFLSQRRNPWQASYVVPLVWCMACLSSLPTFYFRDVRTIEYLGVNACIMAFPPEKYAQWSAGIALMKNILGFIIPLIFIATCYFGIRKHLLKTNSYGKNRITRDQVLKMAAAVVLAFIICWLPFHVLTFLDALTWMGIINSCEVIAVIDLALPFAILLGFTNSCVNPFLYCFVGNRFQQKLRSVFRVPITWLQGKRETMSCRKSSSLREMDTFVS
Assay: Compound was evaluated for inhibition of 125I[Sar1,Ile8] aII binding to rat midbrain membrane preparation Angiotensin II receptor, type 2
Type: tissue-based
pIC50: −log10 of the molar value.

{"columns": ["Compound Structure", "pIC50"],
 "data": [
  ["CCCCOC(=O)NS(=O)(=O)c1ccc(C)cc1-c1ccc(Cn2c(CC)nc3c(C)cc(C)nc32)cc1", 7.06],
  ["CCCCOC(=O)NS(=O)(=O)c1ccc(CC)cc1-c1ccc(Cn2c(CC)nc3c(C)cc(C)nc32)cc1", 7.43],
  ["CCCCOC(=O)NS(=O)(=O)c1ccccc1-c1ccc(Cn2c(CC)nc3c(C)cc(C)nc32)cc1", 7.02],
  ["CCCCOC(=O)NS(=O)(=O)c1ccc(CCC)cc1-c1ccc(Cn2c(CC)nc3c(C)cc(C)nc32)cc1", 8.42]
]}
